method: Maximum plasma concentration upon p.o. dose of 1 mg/kg in rats
Type: ADME, organism-based
Parameters: dose 1 mg/kg, route oral
condition_details: rat, po
Below, each of the compounds is paired with its reported Cmax value.

CCc1cnc(NCc2ccc3oc(CCN4CCC[C@H]4C)cc3c2)nc1    7.1 ng/mL
CCc1cnc(Nc2ccc3oc(CCN4CCC[C@H]4C)cc3c2)nc1    16.2 ng/mL
C[C@@H]1CCCN1CCc1cc2cc(CNc3ncccn3)ccc2o1    34.5 ng/mL

// query What does the data say about its Cmax? Entry: C[C@@H]1CCCN1CCc1cc2cc(-c3ccc(C#N)cc3)ccc2o1
// result 39.6 ng/mL
